Please go through the items and note down their z-score.
Experiment: compound effects on differentiated 3T3-L1 adipocyte viability – cell-based, 3T3-L1 adipocytes, calcein-AM fluorescence, 48 h, basal, profiling panel (AID 1163); further: test concentration not given here
Details: 3T3-L1 adipocytes viability, higher = more signal
API doc: respond with a numeric literal and nothing else, no unit.

Incoming: Returns the measured z-score for the input compound. Input: `CC(=O)NCCCC[C@@H]1NC(=O)[C@@H]2C[C@H](C(=O)NCCCCCN)[C@H](c3cccc(OCCO)c3)N2C1=O`
Outgoing: 0.749

Incoming: Try this compound too: CN1C2C=C(CCCO)C(C3C(=O)N(C(N)=O)C(=O)C32)C1C1CC1 (stereo not drawn)
Outgoing: -0.0683

Incoming: Try this compound too: COc1cc(NN2C(C(O)c3ccc(N(C)C)cc3)C=CC3C(=O)N(c4ccccc4)C(=O)C32)cc(OC)c1OC (stereo not drawn)
Outgoing: 0.808
